- System Tested: FGFR3 (Homo sapiens)
- Construct: purchased Carna Biosciences Inc. (Kobe, Japan)
- Protocol Details: Cell-free kinase activity assay (Caliper Mobility Shift Assay)
- Format: biochemical
Reported Metric: IC50 (µM)
One number for each entry, in µM.

input: GET /values?readout=IC50&item= `O=C1/C(=C/c2ccccc2Br)CNC/C1=C\c1ccccc1Br`
output: 43.2

###

- System Tested: VEGFR2 (Homo sapiens)
Reported Metric: IC50

input: Requested read-out IC50, target or system VEGFR2 (Homo sapiens), entry C[C@H](Cc1ccc(O)c(O)c1)[C@@H](C)Cc1ccc(O)c(O)c1 [NDGA, Nordihydroguaiaretic acid, reference compound]
output: > 100 µM

###

- System Tested: FGFR2 (Homo sapiens)
- Construct: purchased Carna Biosciences Inc. (Kobe, Japan)
- Protocol Details: Cell-free kinase activity assay (Caliper Mobility Shift Assay)
- Assay type: biochemical
Reported Metric: pIC50
One number for each entry, as −log10 of the molar value.

input: GET /values?readout=pIC50&item= `O=C1/C(=C/c2ccccc2Br)CNC/C1=C\c1ccccc1Br`
output: 4.36

###

- System Tested: EGFR (Homo sapiens)
- Construct: purchased Carna Biosciences Inc. (Kobe, Japan)
- Sequence (P00533 25-1210): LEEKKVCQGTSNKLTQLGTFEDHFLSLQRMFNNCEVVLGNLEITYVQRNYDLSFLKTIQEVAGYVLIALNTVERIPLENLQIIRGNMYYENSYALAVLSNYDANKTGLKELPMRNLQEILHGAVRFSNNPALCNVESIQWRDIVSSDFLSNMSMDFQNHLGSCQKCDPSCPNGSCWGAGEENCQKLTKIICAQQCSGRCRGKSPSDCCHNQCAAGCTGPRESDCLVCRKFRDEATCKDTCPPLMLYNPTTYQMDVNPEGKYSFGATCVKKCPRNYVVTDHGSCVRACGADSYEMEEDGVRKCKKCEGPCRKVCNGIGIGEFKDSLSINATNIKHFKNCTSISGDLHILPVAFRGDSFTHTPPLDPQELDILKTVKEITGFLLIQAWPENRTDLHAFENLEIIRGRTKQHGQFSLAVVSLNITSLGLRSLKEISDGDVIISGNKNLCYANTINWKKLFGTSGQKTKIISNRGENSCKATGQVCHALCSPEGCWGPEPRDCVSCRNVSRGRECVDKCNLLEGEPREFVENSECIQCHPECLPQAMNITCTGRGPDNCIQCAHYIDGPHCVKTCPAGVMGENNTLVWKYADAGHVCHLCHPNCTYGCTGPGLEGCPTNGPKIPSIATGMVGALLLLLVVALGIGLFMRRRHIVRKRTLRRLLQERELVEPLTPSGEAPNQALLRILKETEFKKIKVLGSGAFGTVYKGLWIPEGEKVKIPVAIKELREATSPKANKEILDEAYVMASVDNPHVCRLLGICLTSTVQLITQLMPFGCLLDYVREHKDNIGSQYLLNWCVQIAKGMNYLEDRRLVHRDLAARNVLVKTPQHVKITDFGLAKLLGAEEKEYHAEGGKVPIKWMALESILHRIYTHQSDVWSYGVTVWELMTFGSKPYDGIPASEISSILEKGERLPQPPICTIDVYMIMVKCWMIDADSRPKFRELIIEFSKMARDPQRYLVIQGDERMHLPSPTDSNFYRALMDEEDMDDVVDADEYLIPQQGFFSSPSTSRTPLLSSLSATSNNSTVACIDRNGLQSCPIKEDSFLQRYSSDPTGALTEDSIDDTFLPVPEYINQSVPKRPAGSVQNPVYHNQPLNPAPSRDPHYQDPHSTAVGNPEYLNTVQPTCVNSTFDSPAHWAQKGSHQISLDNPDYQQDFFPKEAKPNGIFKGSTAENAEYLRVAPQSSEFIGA
- Protocol Details: Cell-free kinase activity assay (Caliper Mobility Shift Assay)
- Format: biochemical
- Condition Description: ATP at Km; mean of 3-5 independent tests
Answer each item with its documented IC50.
Your answer should be a number followed by the unit of measure.

input: Requested read-out IC50, target or system EGFR (Homo sapiens), entry C[C@H](Cc1ccc(O)c(O)c1)[C@@H](C)Cc1ccc(O)c(O)c1 [NDGA, Nordihydroguaiaretic acid, reference compound]
output: 89.9 µM

New cases:
input: Requested read-out IC50, target or system EGFR (Homo sapiens), entry O=C1/C(=C/c2ccccc2Br)CNC/C1=C\c1ccccc1Br [Aea25]
output: 33.3 µM

###

- System Tested: PDGFRβ (Homo sapiens, UniProt P09619)
- Sequence (P09619 33-1106): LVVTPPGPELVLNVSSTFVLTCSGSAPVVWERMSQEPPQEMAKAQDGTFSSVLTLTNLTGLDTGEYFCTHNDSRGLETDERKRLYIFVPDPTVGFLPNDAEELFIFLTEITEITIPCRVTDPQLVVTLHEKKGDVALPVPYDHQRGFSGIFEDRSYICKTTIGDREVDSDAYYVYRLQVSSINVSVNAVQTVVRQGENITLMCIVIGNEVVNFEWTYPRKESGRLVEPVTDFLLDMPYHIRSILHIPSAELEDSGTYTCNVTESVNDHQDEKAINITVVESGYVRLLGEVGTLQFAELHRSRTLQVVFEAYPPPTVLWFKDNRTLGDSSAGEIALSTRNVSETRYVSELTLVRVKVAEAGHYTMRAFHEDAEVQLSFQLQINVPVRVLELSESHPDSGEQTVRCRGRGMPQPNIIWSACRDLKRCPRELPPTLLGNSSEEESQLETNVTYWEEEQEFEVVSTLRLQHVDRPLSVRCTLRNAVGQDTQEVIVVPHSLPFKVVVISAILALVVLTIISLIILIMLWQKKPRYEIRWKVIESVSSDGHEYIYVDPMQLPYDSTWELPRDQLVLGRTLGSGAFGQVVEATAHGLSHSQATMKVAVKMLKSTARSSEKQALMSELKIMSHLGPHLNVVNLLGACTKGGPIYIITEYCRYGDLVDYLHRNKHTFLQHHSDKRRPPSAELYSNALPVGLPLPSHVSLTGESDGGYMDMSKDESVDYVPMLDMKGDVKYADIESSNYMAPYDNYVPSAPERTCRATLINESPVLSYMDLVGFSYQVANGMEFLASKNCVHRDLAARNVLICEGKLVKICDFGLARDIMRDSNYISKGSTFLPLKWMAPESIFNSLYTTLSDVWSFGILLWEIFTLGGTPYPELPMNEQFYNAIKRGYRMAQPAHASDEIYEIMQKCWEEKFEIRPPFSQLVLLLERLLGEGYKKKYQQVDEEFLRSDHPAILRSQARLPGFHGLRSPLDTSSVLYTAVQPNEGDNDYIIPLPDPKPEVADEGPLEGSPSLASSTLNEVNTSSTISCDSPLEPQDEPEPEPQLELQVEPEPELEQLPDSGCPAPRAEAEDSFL
Reported Metric: IC50 (µM)
Numbers only, in µM.

input: GET /values?readout=IC50&item= `O=C1/C(=C/c2ccccc2Br)CNC/C1=C\c1ccccc1Br`
output: 84

###

- System Tested: FGFR1 (Homo sapiens, UniProt P11362)
- Sequence (P11362 22-822): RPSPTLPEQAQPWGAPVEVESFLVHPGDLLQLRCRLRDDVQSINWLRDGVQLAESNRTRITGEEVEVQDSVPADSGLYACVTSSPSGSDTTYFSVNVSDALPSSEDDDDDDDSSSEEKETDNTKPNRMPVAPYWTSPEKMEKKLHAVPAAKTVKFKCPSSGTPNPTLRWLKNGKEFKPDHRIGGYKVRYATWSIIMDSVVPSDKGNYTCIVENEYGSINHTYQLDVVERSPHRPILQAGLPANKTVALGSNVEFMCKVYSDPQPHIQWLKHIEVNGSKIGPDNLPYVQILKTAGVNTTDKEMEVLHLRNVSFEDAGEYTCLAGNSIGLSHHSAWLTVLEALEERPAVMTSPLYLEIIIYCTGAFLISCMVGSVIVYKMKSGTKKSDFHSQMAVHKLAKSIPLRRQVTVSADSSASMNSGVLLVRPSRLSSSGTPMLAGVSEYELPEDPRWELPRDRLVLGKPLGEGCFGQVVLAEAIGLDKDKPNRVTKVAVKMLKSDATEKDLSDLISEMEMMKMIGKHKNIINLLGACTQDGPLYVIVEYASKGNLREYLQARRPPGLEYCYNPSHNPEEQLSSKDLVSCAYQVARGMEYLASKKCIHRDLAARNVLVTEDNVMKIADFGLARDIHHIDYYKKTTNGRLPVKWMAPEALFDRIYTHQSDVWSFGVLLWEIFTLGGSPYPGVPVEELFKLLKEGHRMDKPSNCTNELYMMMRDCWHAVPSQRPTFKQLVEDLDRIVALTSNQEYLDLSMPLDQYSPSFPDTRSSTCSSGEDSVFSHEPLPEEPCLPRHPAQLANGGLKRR
Reported Metric: pIC50
Give bare numbers, as −log10 of the molar value.

input: Requested read-out pIC50, target or system FGFR1 (Homo sapiens, UniProt P11362), entry C[C@H](Cc1ccc(O)c(O)c1)[C@@H](C)Cc1ccc(O)c(O)c1 [NDGA, Nordihydroguaiaretic acid, reference compound]
output: 4.61

###

- System Tested: UniProtKB P08581
- Sequence (P08581 25-1390): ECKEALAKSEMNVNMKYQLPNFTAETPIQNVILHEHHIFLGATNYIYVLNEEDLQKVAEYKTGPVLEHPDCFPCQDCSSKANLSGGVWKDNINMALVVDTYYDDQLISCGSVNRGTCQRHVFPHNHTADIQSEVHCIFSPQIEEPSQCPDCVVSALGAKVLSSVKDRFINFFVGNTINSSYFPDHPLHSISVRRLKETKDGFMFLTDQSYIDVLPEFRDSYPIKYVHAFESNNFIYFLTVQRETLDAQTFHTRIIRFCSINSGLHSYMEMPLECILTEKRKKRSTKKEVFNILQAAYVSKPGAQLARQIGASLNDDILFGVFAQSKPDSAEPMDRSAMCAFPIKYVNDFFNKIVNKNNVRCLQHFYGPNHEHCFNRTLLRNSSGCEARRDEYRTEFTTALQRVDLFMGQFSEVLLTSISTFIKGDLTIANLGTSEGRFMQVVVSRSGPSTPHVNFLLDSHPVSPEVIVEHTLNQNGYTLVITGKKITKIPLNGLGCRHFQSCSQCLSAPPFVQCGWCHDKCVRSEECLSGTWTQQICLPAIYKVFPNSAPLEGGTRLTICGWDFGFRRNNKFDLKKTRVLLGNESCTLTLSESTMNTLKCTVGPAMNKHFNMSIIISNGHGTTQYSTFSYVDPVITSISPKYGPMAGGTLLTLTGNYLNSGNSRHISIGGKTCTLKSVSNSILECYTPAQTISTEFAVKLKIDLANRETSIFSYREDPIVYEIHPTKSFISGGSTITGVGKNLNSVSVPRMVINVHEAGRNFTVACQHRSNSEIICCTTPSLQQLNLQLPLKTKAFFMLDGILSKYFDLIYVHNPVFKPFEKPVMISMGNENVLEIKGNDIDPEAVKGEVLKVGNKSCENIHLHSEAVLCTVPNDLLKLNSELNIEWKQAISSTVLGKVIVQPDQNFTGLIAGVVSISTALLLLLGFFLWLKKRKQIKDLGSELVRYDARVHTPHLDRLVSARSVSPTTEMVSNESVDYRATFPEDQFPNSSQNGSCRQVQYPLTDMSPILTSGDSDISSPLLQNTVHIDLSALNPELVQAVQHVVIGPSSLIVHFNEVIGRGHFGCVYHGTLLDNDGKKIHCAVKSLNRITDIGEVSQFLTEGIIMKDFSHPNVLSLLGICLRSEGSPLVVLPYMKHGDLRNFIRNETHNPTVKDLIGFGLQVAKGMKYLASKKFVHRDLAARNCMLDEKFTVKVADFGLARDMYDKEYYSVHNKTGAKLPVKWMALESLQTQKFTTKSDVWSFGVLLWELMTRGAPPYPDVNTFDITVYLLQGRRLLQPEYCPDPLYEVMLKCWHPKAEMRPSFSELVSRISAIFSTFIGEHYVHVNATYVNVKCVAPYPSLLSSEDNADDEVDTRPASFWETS
Reported Metric: IC50

input: GET /values?readout=IC50&item= C[C@H](Cc1ccc(O)c(O)c1)[C@@H](C)Cc1ccc(O)c(O)c1 [NDGA, Nordihydroguaiaretic acid, reference compound]
output: > 100 µM

Cited source: paper PMC4147344
